Experiment: NIH-3T3 fibroblast cytotoxicity, dose response, cytotoxicity control, cell-based, fluorescence, Alamar Blue, secondary assay (AID 2327);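 also: NIH-3T3 mouse fibroblasts cultured with fluconazole at 8 µg/mL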
Type: functional
Calls of active or inactive are those of the source.
Possible outcomes: active, inactive

sample_smiles=CCN(CC)CCN(C(=O)c1ccc2ccccc2c1)c1nc2ccc(OC)cc2s1 answer_label=inactive
sample_smiles=O=C(Nc1cccc2ccccc12)c1ccc([N+](=O)[O-])o1 answer_label=inactive
sample_smiles=Cc1cccc(NC(=O)NNC(=O)c2cc3ccccc3cc2O)c1C answer_label=active
sample_smiles=O=[N+]([O-])c1ccc(Cl)c(/C=C/c2cc(C(F)(F)F)nc(O)n2)c1 answer_label=inactive

---

Known AC50 of a selection of compounds
Assay: blockers of HIV-1 ZM109 envelope-driven cell-cell fusion – HeLa effector, CEM target cells, luciferase, cherry-pick, dose response (AID 652058);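 also: luciferase signal from HIV-1 Env mediated cell-cell fusion of effector and target cells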
Type: functional, cell-based
Active and inactive are the calls of the source.
observation-type: AC50

compound=CSc1ccc(CN(C)C(=O)c2cccc(S(=O)(=O)N3CCN(Cc4ccccc4)CC3)c2)cc1 observation_type=AC50 reported_value="10.3 µM (active)"
compound=C[C@H]1CN([C@@H](C)CO)C(=O)Cc2cc(NC(=O)Nc3ccc4c(c3)OCO4)ccc2O[C@H]1CN(C)S(=O)(=O)c1ccccc1 observation_type=AC50 reported_value="0.739 µM (active)"
compound="CN1CC(c2ccccc2Cl)C2(COc3ccccc3C2=O)C12C(=O)Nc1ccccc12 (centres undefined)" observation_type=AC50 reported_value="3 µM (active)"
compound=O=C1CCCc2c1[nH]c1ccc(Cl)cc21 observation_type=AC50 reported_value="15 µM (active)"
